Where do the numbers come from? From PubChem BioAssay (NCI).

# Tested on: NCI-H226 lung
# method description: NCI tumour cell line growth inhibition, 48 h
Would you please tag the item True when its TGI is 30 µM or above, and False when it is below?

1) CC[C@H](Nc1nc(NCc2cnc(C)cc2C)c2ncn(C(C)C)c2n1)[C@@H](C)O ... False
2) COc1ccc2nc3ccc(OC)cc3c(SCc3ccc([N+](=O)[O-])cc3)c2c1 ... True
3) Cc1ccc(-n2c3c(c4c(CN(C)C)c(O)ccc42)CCc2ccccc2C3=O)cc1 ... True
4) Cc1nc2sc3ccccc3n2c(=O)c1N=Nc1ccc(Br)cc1 ... True
5) O=C(CC(C(=O)c1ccco1)c1ccsc1)c1ccco1 (stereo not drawn) ... True
6) O=c1nc2n(-c3ccc(Cl)cc3)c3ccc([N+](=O)[O-])cc3cc-2c(=O)[nH]1 ... True
7) C=CCN1C(=O)/C(=C/c2ccc(OC)cc2)NC1=S ... True
8) Cc1ccccc1C(=O)c1ccccc1O ... True
9) N#CC(C(=O)/C(=N/N)C(C#N)c1ccccc1)c1ccccc1 (stereo not drawn) ... True
10) CC(C)=CCNc1ncnc2nc[nH]c12 ... True
11) CCOC(=O)C(/C=N\C(=S)Nc1ccc(Cl)c(Cl)c1)=C(/O)c1ccccc1 ... True
12) COc1ccc(-n2nnnc2-c2c[nH]c3c(F)cc(F)cc23)cc1 ... True
13) COc1cc(/C=C2\C[C@H]3[C@@H]4CC=C5C=C(N6CCCC6)CC[C@]5(C)[C@H]4CC[C@]3(C)C2=O)cc(OC)c1OC ... True
14) Nc1c2c(=O)[nH]c(=O)c2c(N)c2c(=O)c3ccccc3c(=O)c12 ... False
15) CCCCc1c2c(nc3c1CCCC3O)CCCC2 (stereo not drawn) ... True
16) CC(=O)N1OC(C)CC1Nc1ccc(Br)cc1 (stereo not drawn) ... True
17) CSc1nc(Cl)c(Br)c(Sc2nc(N)nc3nc[nH]c23)n1 ... False
18) COc1ccc(/C=C/C(=O)/C=C/c2ccc(OC)cc2)cc1 ... True
19) O/C(=C\c1nc2ccccc2nc1/C=C(\O)c1ccc(Cl)cc1)c1ccccc1 ... True
20) CCC/C(=N/N=C(N)N)c1ccc(NC(=O)c2cc3cc(OC)ccc3[nH]2)cc1 ... True
21) C/C(=N/Nc1nc2ccccc2n1C)c1ccccn1 ... False
22) COc1cc(C)c(/C=C/C(=O)N2C(=O)OC[C@@H]2c2ccccc2)c(C)c1 ... True
23) CCCCCC/C=C1\CCC(CN2CCCC2)C1=O (stereo not drawn) ... True
